# study-target: Solute carrier family 2, facilitated glucose transporter member 1 (Homo sapiens) (UniProt P11166)
# Sequence (P11166 whole entry): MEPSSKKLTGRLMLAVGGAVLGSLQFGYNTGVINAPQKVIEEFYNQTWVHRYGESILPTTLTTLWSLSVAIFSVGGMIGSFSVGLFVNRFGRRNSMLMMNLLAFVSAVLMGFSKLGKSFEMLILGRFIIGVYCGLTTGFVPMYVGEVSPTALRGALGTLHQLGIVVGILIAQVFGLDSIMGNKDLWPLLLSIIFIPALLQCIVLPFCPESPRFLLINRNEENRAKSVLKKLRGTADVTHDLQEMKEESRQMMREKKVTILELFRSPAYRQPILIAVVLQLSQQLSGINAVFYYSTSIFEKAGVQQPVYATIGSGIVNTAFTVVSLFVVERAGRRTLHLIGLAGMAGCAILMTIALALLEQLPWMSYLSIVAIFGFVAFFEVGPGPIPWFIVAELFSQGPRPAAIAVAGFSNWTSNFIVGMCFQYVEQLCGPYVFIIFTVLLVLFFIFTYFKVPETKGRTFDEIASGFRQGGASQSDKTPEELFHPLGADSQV
# test-description: ST_JUDE_LEISH: Cytotoxicity at 2uM final concentration against transgenic Leishmania Mexicana promastigotes LmGLUT1 that are glucose transport deficient and complemented with the human glucose transporter GLUT1. Activity is measured by DNA content using SYBR green in vitro
# Type: functional
I would appreciate it if you labelled entries criterion met when inhibition is 4% or higher, otherwise criterion not met.

stdin: Can CC1CCN(CC[C@H]2CCCN2S(=O)(=O)c2cccc(NC(=O)c3cc4ccccc4s3)c2)CC1 be said to have inhibition at or above 4%?
stdout: criterion met

stdin: Can Cc1nc(-c2ccc(-c3ccc(C(=O)Nc4ccc(-n5ccnc5)c(N5CCN(C)CC5)c4)cc3)c(C)c2)no1 be said to have inhibition at or above 4%?
stdout: criterion not met

stdin: Can COc1ccc(CN2CCC(NCc3cccc([N+](=O)[O-])c3)CC2)cc1 be said to have inhibition at or above 4%?
stdout: criterion met

stdin: Can CCCCCCCN1CC[C@@H](CCCc2ccnc3ccc(OCCC4CCNCC4)cc23)[C@@H](CC)C1 be said to have inhibition at or above 4%?
stdout: criterion met

stdin: Can O=C(Nc1nc(-c2cc(F)ccc2F)cs1)c1cncc(Br)c1 be said to have inhibition at or above 4%?
stdout: criterion met

stdin: Can CC(CCCCC(=O)Nc1ccc(CC(C)NCCc2cccc(Cl)c2)cc1)NCCc1cccc(Cl)c1 (centres undefined) be said to have inhibition at or above 4%?
stdout: criterion not met

stdin: Can N#Cc1ccc(CN2CCCN(c3ccc(NC(=O)c4ccc(F)cc4)cc3)CC2)cc1 be said to have inhibition at or above 4%?
stdout: criterion not met

stdin: Can COc1ccc2ncc(F)c([C@@H](O)CN3CCC(NCc4cc5c(cn4)OCS5)CC3)c2c1 be said to have inhibition at or above 4%?
stdout: criterion met

stdin: Can Cc1ccc(CNC(=O)[C@H](CC(C)C)Nc2cc(C)nc(NCc3ccccc3C)n2)cc1 be said to have inhibition at or above 4%?
stdout: criterion met
